Tested on: NCI-H460 lung
Experiment: NCI-60 one-dose screen, 48 h
Conditions: 10 µM unless noted
About 83,000 compounds went through this panel and 20% of them were active in at least one assay; those are over-represented in the sample as a whole. Calls of active or inactive are those of the source. Rule for the calls: active = growth percent below 10; inactive = the rest.
Labels: active, inactive

1. COc1ccc(/C=N/Nc2c3ccccc3nc3ccccc23)cc1 : inactive
2. Cc1nc2ccccc2c(/C=C/c2ccc(F)cc2)c1C(=O)/C=C/c1ccccc1 : active
3. O=C(/C=C/c1ccccc1)c1cccc2ccccc12 : inactive
4. O=c1cc(C(F)(F)F)c2cc(-c3cc4ccccc4c(=O)o3)c(O)cc2o1 : inactive
5. CC(C)C1C2=C(NCCN1C(=O)c1ccncc1)C(C)(C)N(Cc1ccccc1)C2=O (stereo unspecified) : inactive
6. CSc1ccc(N2C(=N)C(=S)N(c3ccc(C)cc3)C2=O)cc1 : inactive
